Target under test: type H3 central histamine receptors (Mus musculus, UniProt P58406)
Construct: the brains are removed, frozen in liquid nitrogen, weighed and homogenised; from tissue; host or cells: brain of living NMRI mice (oral dosing)
Sequence (P58406 whole entry): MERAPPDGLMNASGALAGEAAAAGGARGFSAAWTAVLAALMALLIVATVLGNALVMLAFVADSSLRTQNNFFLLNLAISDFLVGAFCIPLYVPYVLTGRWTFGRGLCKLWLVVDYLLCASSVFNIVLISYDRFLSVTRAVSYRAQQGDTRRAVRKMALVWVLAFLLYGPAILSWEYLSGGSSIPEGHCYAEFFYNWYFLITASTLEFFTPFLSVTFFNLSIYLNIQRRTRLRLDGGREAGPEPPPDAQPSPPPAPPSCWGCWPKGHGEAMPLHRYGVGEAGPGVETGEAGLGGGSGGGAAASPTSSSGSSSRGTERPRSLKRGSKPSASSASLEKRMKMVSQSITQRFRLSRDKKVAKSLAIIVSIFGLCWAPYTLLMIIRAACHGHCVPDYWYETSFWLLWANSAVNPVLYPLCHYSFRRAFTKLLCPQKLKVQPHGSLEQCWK
Assay method text: Cerebral levels of Nτ-methylhistamine in the NMRI mouse (ex vivo H3 antagonist activity)
Protocol conditions: 10 mg/kg PO, one hour after treatment, vs carrier
Documented increase in endogenous cerebral concentrations of Nτ-methylhistamine across a set of compounds
Express it in %; write the number only.

Examples with their reported increase in endogenous cerebral concentrations of Nτ-methylhistamine follow.
What value of measured increase in endogenous cerebral concentrations of Nτ-methylhistamine is listed for CC(=O)Nc1ccc(OCCN2C[C@H]3C[C@H]3C2)cc1 [Example 5] ?
109

What value of measured increase in endogenous cerebral concentrations of Nτ-methylhistamine is listed for CC(=O)N(C)c1ccc(OCCCN2C[C@H]3C[C@H]3C2)cc1.Cl [Example 13] ?
135

What value of measured increase in endogenous cerebral concentrations of Nτ-methylhistamine is listed for COCC(=O)Nc1ccc(OCCCN2C[C@H]3C[C@H]3C2)cc1 [Example 14] ?
124

Others:
What value of measured increase in endogenous cerebral concentrations of Nτ-methylhistamine is listed for CC(=O)Nc1ccc(OCCCCN2C[C@H]3C[C@H]3C2)cc1 [Example 6] ?
106
